So I've got MIC readings for Staphylococcus aureus (ATCC25923), take a look.
Where a name gives a salt, the structure may show the parent alone.
Quick note: give the figure in µg/mL, leave out the unit.

Fill in MIC for COc1cccc(C(CC(=O)NC2CCC(N)CC2)c2cn(CC3CCCCC3)c3ccccc23)c1.Cl (stereo not shown) tested with Staphylococcus aureus (ATCC25923).
17

GET MIC where system = Staphylococcus aureus (ATCC25923) and item = NC1CCC(NCCC(c2ccc(F)c(F)c2)c2cn(CC3CCCCC3)c3ccccc23)CC1 (stereo not shown) [Compound 161, hydrochloride salt]
2

System Staphylococcus aureus (ATCC25923). Read-out MIC. Item Cc1cccc(C(CCNC2CCC(N)CC2)c2cn(CC34CC5CC(CC(C5)C3)C4)c3ccccc23)c1 (stereo not shown) [Compound 232, hydrochloride salt] . Report value.
2

* * *

Where a name gives a salt, the structure may show the parent alone.
For Staphylococcus aureus (ATCC25923), measured MIC is reported for the entries below.
Write the value in µg/mL as a bare number.

Identify the reported MIC for the following entry. Cc1cccc(C(CC(=O)N[C@H]2CC[C@H](N)CC2)c2cn(CC3CCCCC3)c3ccc(-c4ccccc4)cc23)c1.Cl (stereo partly shown)
64

Please supply the value of reported MIC for the item Cc1cccc(C(CCN(C)C2CCNCC2)c2cn(CC3CCCCC3)c3ccc(Br)cc23)c1 (stereo not shown) [Compound 291, hydrochloride salt]
2

Answer with the recorded MIC for the molecule listed here: NC1CCC(NCCc2cn(CC3CCCCC3)c3ccc(-c4ccccc4OC(F)(F)F)cc23)CC1 (stereo not shown) [Compound 241, hydrochloride salt]
2

Give the reported MIC for this molecule. Cc1cccc(-c2ccc3c(c2)c(CCN[C@H]2CC[C@H](N)CC2)cn3CC2CCCCC2)c1 [Compound 225, hydrochloride salt]
2

Could you please provide reported MIC for Cc1cccc(C(CC(=O)N(C)C2CCNCC2)c2cn(CC3CCCCC3)c3ccc(Br)cc23)c1.Cl (stereo not shown) ? Thanks!
2

Tell me measured MIC for COc1ccc2c(c1)c(C(CC(=O)NC1CCC(N)CC1)c1cccc(C)c1)cn2CC1CCCCC1.Cl (stereo not shown) please.
16

* * *

- System: E. faecium ATCC 700221
- protocolText: MIC, E. faecium ATCC 700221
- Format: cell-based
- experimentalConditions: Enterococcus faecium, ATCC700221; Table XIV A. Gram-positive bacteria; read-out: E. faecium ATCC 700221 MIC
Structures can show the parent of a compound that is named as a salt.
Give measured MIC for each item. Keep answers brief.
API: value field is a number in µg/mL; no unit string.

Read the entry Cc1cccc(CC(CC(=O)N[C@H]2CC[C@H](N)CC2)c2cn(CC3CCCCC3)c3ccccc23)c1.Cl (some centres unmarked) and write its reported MIC.
4

Provide MIC value for the following molecule: NCCCNCCC(c1cccc(OC(F)(F)F)c1)c1cn(C2CCCCC2)c2ccccc12 (centres unmarked)
2

For the molecule "Cc1cccc(-c2ccc3c(c2)c(CCCNCCCN)cn3C2CCCCC2)c1.Cl.Cl" , give its reported MIC.
2

Quickly give me recorded MIC for NC1CCC(NCCC(c2cccc(C(F)(F)F)c2)c2cn(CC3CCCCC3)c3ccccc23)CC1 (centres unmarked) [Compound 168, hydrochloride salt]
2

Annotate the molecule Cc1cccc(C(CCNC2CCC(N)CC2)c2cn(CC34CC5CC(CC(C5)C3)C4)c3ccccc23)c1 (centres unmarked) [Compound 232, hydrochloride salt] with its measured MIC.
2

Output measured MIC for this item: Cc1cccc(C(CCN[C@H]2CC[C@H](N)CC2)c2cn(CC3CCCCC3)c3ccccc23)c1 (some centres unmarked) [Compound 199, hydrochloride]
4

Note MIC for the molecule shown: Cl.Cl.NCCCNCCC(c1cn(C2CCCCC2)c2ccccc12)C1CCCCC1 (centres unmarked)
2

Please give measured MIC of the following entry: Cc1cccc(C(CCNC2CCNCC2)c2cn(CC3CCCCC3)c3ccccc23)c1.Cl (centres unmarked)
2

Respond only with MIC recorded for Cc1cccc(C(CCNC2CCC(N)CC2)c2cn(CC3CCCCCC3)c3ccccc23)c1 (centres unmarked) [Compound 245, hydrochloride salt]
2

Specify MIC for Cc1cccc(C(CCNC2CCNCC2)c2cn(CC3CCCCC3)c3ccc(Br)cc23)c1.Cl (centres unmarked) and stop.
2

Return MIC (reported value) for this molecule: NC1CCC(NCCC(c2cccc(OC(F)(F)F)c2)c2cn(CC3CCCCC3)c3ccccc23)CC1 (centres unmarked) [Compound 173, hydrochloride salt]
2

Give the reported value of MIC for this record: NC1CCC(NCCC(c2cccc(Cl)c2)c2cn(CC3CCCCC3)c3ccccc23)CC1 (centres unmarked) [Compound 170, hydrochloride salt]
2

Please indicate MIC recorded for N[C@H]1CC[C@H](NC2CCC(c3cn(CC4CCCCC4)c4ccc(Br)cc34)CC2)CC1 (single isomer, unassigned) [Compound 266, hydrochloride salt]
2

Tell me MIC reported for Cc1cccc(-c2ccc3c(c2)c(C2CCCC(NCCCN)C2)cn3C2CCCCC2)c1 (centres unmarked)
1
